Every entry's value here was drawn from patent US9458414B2.

test: Coupling of water and soy methyl ester by hydrotropes; type: physicochemical; conditions: ratio of water:soy methyl esters 90:10
Observation type: Wt % Hydrotrope required to compatibilize the phases (%)

INSERT INTO assay_data (compound, assay_value) VALUES
  ('CCOC(=O)CCC1(C)OCC(CO)O1 (centres unmarked) [EtLGK, glycerol ketal of ethyl levulinic acid]', 84),
  ('COC(C)COC(C)CO (centres unmarked) [DPM, dipropylene glycol methyl ether]', 78),
  ('CC1COC(C)(CCCO)O1 (centres unmarked) [Ketal alcohol (1a)]', 81),
  ('CCO [ethanol]', 77),
  ('COCC(C)O (centres unmarked) [PM, propylene glycol methyl ether]', 77);

###

assay: Coupling of water and castor oil by hydrotropes; assay type: physicochemical; conditions: ratio of water to castor oil 10:90
Observation type: Wt % Castor oil (at compatibilization) (%)

INSERT INTO results (molecule, assay_value) VALUES
  ('COC(C)COC(C)CO (centres unmarked) [DPM, dipropylene glycol methyl ether]', 40),
  ('COCC(C)O (centres unmarked) [PM, propylene glycol methyl ether]', 36),
  ('CC1COC(C)(CCCO)O1 (centres unmarked) [Ketal alcohol (1a)]', 32),
  ('CCOC(=O)CCC1(C)OCC(CO)O1 (centres unmarked) [EtLGK, glycerol ketal of ethyl levulinic acid]', 35),
  ('CCO [ethanol]', 40);

###

assay: Coupling of water and soy methyl ester by hydrotropes; assay type: physicochemical; settings: ratio of water:soy methyl esters 50:50
Observation type: Wt % Soy Methyl Esters (at compatibilization) (%)

Here is how some molecules turned out for Wt % Soy Methyl Esters (at compatibilization).
INSERT INTO results (molecule, measurement_unit, assay_value) VALUES
  ('CC1COC(C)(CCCO)O1 (centres unmarked)', '%', 10),
  ('COC(C)COC(C)CO (centres unmarked)', '%', 13),
  ('COCC(C)O (centres unmarked)', '%', 11);

A. CCOC(=O)CCC1(C)OCC(CO)O1 (centres unmarked)
B. CCO
Exercise: Please indicate which entry, A or B , has the lower recorded Wt % Soy Methyl Esters (at compatibilization) value. Identify your pick by its label.
Key: A

###

assay: Coupling of water and castor oil by hydrotropes; type: physicochemical; details: ratio of water to castor oil 70:30
Observation type: Wt % Hydrotrope required to compatibilize phases (%)

INSERT INTO assay_data (molecule, assay_value) VALUES
  ('COCC(C)O (centres unmarked)', 81),
  ('CCOC(=O)CCC1(C)OCC(CO)O1 (centres unmarked)', 86),
  ('CCO', 82),
  ('COC(C)COC(C)CO (centres unmarked)', 79),
  ('CC1COC(C)(CCCO)O1 (centres unmarked)', 82);

###

test: Coupling of water and soy methyl ester by hydrotropes; format: physicochemical; conditions: ratio of water:soy methyl esters 10:90
Observation type: Wt % Hydrotrope required to compatibilize the phases (%)

INSERT INTO results (compound, measurement_unit, assay_value) VALUES
  ('COCC(C)O (centres unmarked) [PM, propylene glycol methyl ether]', '%', 51),
  ('CCOC(=O)CCC1(C)OCC(CO)O1 (centres unmarked) [EtLGK, glycerol ketal of ethyl levulinic acid]', '%', 78),
  ('CCO [ethanol]', '%', 54),
  ('COC(C)COC(C)CO (centres unmarked) [DPM, dipropylene glycol methyl ether]', '%', 48),
  ('CC1COC(C)(CCCO)O1 (centres unmarked) [Ketal alcohol (1a)]', '%', 58);
